system: T1, mSNAPc#2 2Mu (Homo sapiens, UniProt Q5SXM2;Q92966;Q16533;O75971 1-505;1-411;1-268;1-98, Y389A;R151A)
T1 sequence 1: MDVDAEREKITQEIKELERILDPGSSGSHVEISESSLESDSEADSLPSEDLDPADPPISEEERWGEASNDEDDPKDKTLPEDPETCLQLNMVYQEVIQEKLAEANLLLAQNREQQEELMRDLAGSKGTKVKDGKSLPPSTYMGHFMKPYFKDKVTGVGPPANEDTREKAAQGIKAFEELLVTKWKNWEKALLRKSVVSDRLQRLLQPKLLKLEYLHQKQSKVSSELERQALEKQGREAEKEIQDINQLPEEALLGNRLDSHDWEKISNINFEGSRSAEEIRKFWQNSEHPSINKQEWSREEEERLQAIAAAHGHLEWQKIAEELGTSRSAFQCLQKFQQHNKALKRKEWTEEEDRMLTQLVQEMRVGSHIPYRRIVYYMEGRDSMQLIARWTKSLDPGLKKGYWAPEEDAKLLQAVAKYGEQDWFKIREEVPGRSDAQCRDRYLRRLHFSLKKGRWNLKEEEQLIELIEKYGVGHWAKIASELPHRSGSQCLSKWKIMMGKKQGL
T1 sequence 2: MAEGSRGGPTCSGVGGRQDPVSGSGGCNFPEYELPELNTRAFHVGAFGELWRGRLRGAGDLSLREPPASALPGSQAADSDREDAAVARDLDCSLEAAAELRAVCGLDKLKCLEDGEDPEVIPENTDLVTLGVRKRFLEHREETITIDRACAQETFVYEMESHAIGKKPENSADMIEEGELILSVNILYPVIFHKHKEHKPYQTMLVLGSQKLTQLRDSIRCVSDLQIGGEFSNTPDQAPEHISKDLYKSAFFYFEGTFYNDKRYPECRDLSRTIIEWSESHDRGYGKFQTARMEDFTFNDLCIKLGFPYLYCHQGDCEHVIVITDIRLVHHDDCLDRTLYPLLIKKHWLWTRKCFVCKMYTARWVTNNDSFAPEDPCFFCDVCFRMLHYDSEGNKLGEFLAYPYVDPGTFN
T1 sequence 3: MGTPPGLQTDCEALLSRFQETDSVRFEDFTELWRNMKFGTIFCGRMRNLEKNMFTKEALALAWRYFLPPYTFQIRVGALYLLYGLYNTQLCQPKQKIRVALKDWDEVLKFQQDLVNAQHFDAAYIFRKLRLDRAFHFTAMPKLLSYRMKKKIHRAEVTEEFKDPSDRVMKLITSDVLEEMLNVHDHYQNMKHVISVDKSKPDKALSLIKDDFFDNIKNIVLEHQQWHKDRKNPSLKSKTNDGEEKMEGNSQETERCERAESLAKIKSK
T1 sequence 4: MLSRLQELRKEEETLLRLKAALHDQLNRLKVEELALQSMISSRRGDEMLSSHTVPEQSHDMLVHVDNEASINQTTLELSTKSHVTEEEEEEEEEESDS
assay method text: SPR; EMSA: 100 mM KCl, 25 mM HEPES-K pH 7.6, 12.5 mM MgCl2, 10 uM ZnCl2, 0.1 mM EDTA, 10% glycerol, 3 mM DTT, 0.5 mM PMSF, 50 nM DNA, RT 30 min; SPR: 100 mM KCl, 12.5 mM MgCl2, 10 uM ZnCl2, 0.1 mM EDTA, 0.05% P20, 25 C
assay conditions: protein: recombinant; tags: as P1; copies: 1;1;1;1
readout name: pKd
Please express pKd as -log10 of the molar concentration.

Query pKd for 25 bp hU6-1 PSE (SPR) (dsDNA) DNA 1: TGCTTACCGTAACTTGAAAGTATTT DNA 2: AAATACTTTCAAGTTACGGTAAGCA 5.79
